Tested on: Human immunodeficiency virus 1
Assay: Antiviral activity against HIV1 infected in human TZM-bl cells assessed as inhibition of viral infection at 10 uM preincubated with cells for 5 mins followed by viral infection measured after 24 hrs by Bright Glo luciferase reporter gene assay relative to control
Assay type: functional
Conditions: Human immunodeficiency virus 1, TZM-bl
Kindly return Condition met if reported inhibition at 10 µM is no lower than 60%; return Condition not met if it is lower.

{"test.smiles": "CCOc1ccc(Cl)cc1/C=C/C(=O)c1c(O)cccc1OCc1ccccc1", "discrete.label": "Condition met"}
{"test.smiles": "COc1ccc(Br)cc1/C=C/C(=O)c1c(O)cccc1OCc1ccccc1", "discrete.label": "Condition met"}
{"test.smiles": "CCOc1ccc(Br)cc1/C=C1\\Oc2cccc(OCc3ccccc3)c2C1=O", "discrete.label": "Condition not met"}
{"test.smiles": "COc1ccc(Br)cc1-c1oc2ccccc2c(=O)c1O", "discrete.label": "Condition not met"}
{"test.smiles": "COc1cc(Br)cc(-c2oc3ccccc3c(=O)c2O)c1OC", "discrete.label": "Condition not met"}
{"test.smiles": "COc1ccccc1-c1cc(=O)c2c(O)cccc2o1", "discrete.label": "Condition met"}
{"test.smiles": "COc1ccc(I)cc1/C=C/C(=O)c1ccccc1O", "discrete.label": "Condition met"}
{"test.smiles": "CCCCCCCCOc1ccc(Br)cc1/C=C/C(=O)c1c(O)cccc1OCc1ccccc1", "discrete.label": "Condition not met"}
{"test.smiles": "COc1cc(OC)c(/C=C/C(=O)c2ccccc2O)cc1Br", "discrete.label": "Condition not met"}
{"test.smiles": "COc1ccc(Br)cc1-c1cc(=O)c2c(OCc3ccccc3)cccc2o1", "discrete.label": "Condition not met"}
{"test.smiles": "COc1ccccc1-c1oc2ccccc2c(=O)c1O", "discrete.label": "Condition not met"}

* * *

Experiment: Cytotoxicity against human PM1 cells assessed as inhibition of cell viability at 10 uM by trypan blue dye exclusion method relative to control
Format: cell-based
Conditions: read-out: INH

{"test.smiles": "COc1ccc(Br)cc1/C=C/C(=O)c1c(O)cccc1OCc1ccccc1", "cytotoxicity at 10 µM (%)": 61.7}
{"test.smiles": "CCOc1ccc(Cl)cc1/C=C/C(=O)c1c(O)cccc1OCc1ccccc1", "cytotoxicity at 10 µM (%)": 12.3}
{"test.smiles": "CCOc1ccc(Br)cc1-c1oc2ccccc2c(=O)c1O", "cytotoxicity at 10 µM (%)": 23.1}
{"test.smiles": "CCOc1ccc(Cl)cc1-c1oc2ccccc2c(=O)c1O", "cytotoxicity at 10 µM (%)": 25.8}

* * *

Test: Cytotoxicity against human TZM-bl cells assessed as inhibition of cell viability at 10 uM by CytoTox Glo assay relative to control
Format: cell-based
Settings: TZM-bl cells, read-out: INH
observable: cytotoxicity at 10 µM (%)

{"test.smiles": "COc1ccc(Br)cc1/C=C/C(=O)c1c(O)cccc1OCc1ccccc1", "observable": "cytotoxicity at 10 µM", "value": 23.4}
{"test.smiles": "COc1ccc(I)cc1/C=C/C(=O)c1ccccc1O", "observable": "cytotoxicity at 10 µM", "value": 99.6}
{"test.smiles": "COc1ccc(C)cc1-c1oc2ccccc2c(=O)c1O", "observable": "cytotoxicity at 10 µM", "value": 4.8}
{"test.smiles": "COc1ccc(Br)cc1/C=C/C(=O)c1ccccc1O", "observable": "cytotoxicity at 10 µM", "value": 62.6}
{"test.smiles": "COc1ccc(Br)cc1-c1cc(=O)c2c(OCc3ccccc3)cccc2o1", "observable": "cytotoxicity at 10 µM", "value": 6.5}
{"test.smiles": "COc1cc(OC)c(/C=C/C(=O)c2ccccc2O)cc1Br", "observable": "cytotoxicity at 10 µM", "value": 1.9}
{"test.smiles": "COc1ccccc1/C=C/C(=O)c1ccccc1O", "observable": "cytotoxicity at 10 µM", "value": 16.5}
{"test.smiles": "COc1ccc(Br)cc1-c1cc(=O)c2ccccc2o1", "observable": "cytotoxicity at 10 µM", "value": 23.6}
{"test.smiles": "COc1ccccc1-c1cc(=O)c2ccccc2o1", "observable": "cytotoxicity at 10 µM", "value": 39.5}
{"test.smiles": "COc1ccc(C)cc1/C=C/C(=O)c1ccccc1O", "observable": "cytotoxicity at 10 µM", "value": 46.9}
{"test.smiles": "CCOc1ccc(Br)cc1/C=C/C(=O)c1ccccc1O", "observable": "cytotoxicity at 10 µM", "value": 51.9}
{"test.smiles": "COc1cc(Br)cc(/C=C/C(=O)c2ccccc2O)c1OC", "observable": "cytotoxicity at 10 µM", "value": 72.3}

* * *

Catalogue of IC50 readings, one per entry.
Test system: Human immunodeficiency virus 1
Assay: Antiviral activity against HIV1 BAL infected in human TZM-bl cells assessed as inhibition of viral infection
Type: functional, organism-based
Conditions: Human immunodeficiency virus 1, BAL
observable: IC50

{"test.smiles": "COc1cc(Br)cc(-c2oc3ccccc3c(=O)c2O)c1OC", "value": "30.9 µM"}
{"test.smiles": "COc1ccc(Br)cc1-c1cc(=O)c2c(OCc3ccccc3)cccc2o1", "value": "42.3 µM"}
{"test.smiles": "COc1ccccc1-c1oc2ccccc2c(=O)c1O", "value": "30.4 µM"}

* * *

Experiment: Cytotoxicity against human PM1 cells assessed as inhibition of cell viability at 5 uM by trypan blue dye exclusion method relative to control
Assay type: cell-based
Details: PM1 cells, read-out: INH
observable: cytotoxicity at 5 µM

{"test.smiles": "COc1ccc(Br)cc1/C=C/C(=O)c1c(O)cccc1OCc1ccccc1", "value": "0.6%"}
{"test.smiles": "CCOc1ccc(Br)cc1-c1oc2ccccc2c(=O)c1O", "value": "16.5%"}

* * *

System: Human immunodeficiency virus 1
Assay: Antiviral activity against HIV1 BAL infected in human TZM-bl cells assessed as inhibition of viral infection
Format: functional, organism-based
Conditions: Human immunodeficiency virus 1, BAL
Note to self: use Yes only for IC50 readings below 10 µM; a reading exactly at 10 µM still gets No.

{"test.smiles": "COc1ccccc1-c1cc(=O)c2c(O)cccc2o1", "discrete.label": "Yes"}
{"test.smiles": "COc1ccc(Br)cc1/C=C/C(=O)c1c(O)cccc1OCc1ccccc1", "discrete.label": "Yes"}
{"test.smiles": "COc1ccc(Br)cc1/C=C/C(=O)c1ccc2ccccc2c1O", "discrete.label": "No"}
{"test.smiles": "COc1ccc(Br)cc1-c1oc2ccccc2c(=O)c1O", "discrete.label": "No"}
{"test.smiles": "CCOc1ccc(Br)cc1-c1oc2ccccc2c(=O)c1O", "discrete.label": "No"}
{"test.smiles": "CCOc1ccc(Cl)cc1-c1oc2ccccc2c(=O)c1O", "discrete.label": "No"}

* * *

Assay: Cytotoxicity against human TZM-bl cells assessed as inhibition of cell viability at 10 uM by CytoTox Glo assay relative to control
Assay type: cell-based
Details: TZM-bl cells, read-out: INH
Entry class follows cytotoxicity at 10 µM: range 1 = under 20%, range 2 = from 20% up to 40%, range 3 = 40% and over

{"test.smiles": "COc1ccc(Br)cc1/C=C1\\Oc2cccc(OC)c2C1=O", "discrete.label": "range 1"}
{"test.smiles": "CCOc1ccc(Br)cc1/C=C1\\Oc2cccc(OCc3ccccc3)c2C1=O", "discrete.label": "range 1"}
{"test.smiles": "CCOc1ccc(Cl)cc1/C=C/C(=O)c1ccccc1O", "discrete.label": "range 3"}
{"test.smiles": "CCOc1ccc(Cl)cc1-c1oc2ccccc2c(=O)c1O", "discrete.label": "range 2"}
{"test.smiles": "CCOc1ccc(Cl)cc1/C=C/C(=O)c1c(O)cccc1OCc1ccccc1", "discrete.label": "range 1"}
{"test.smiles": "COc1ccc(Br)cc1-c1cc(=O)c2c(O)cccc2o1", "discrete.label": "range 2"}
{"test.smiles": "COc1ccccc1-c1cc(=O)c2c(O)cccc2o1", "discrete.label": "range 3"}
{"test.smiles": "COc1ccc(Br)cc1/C=C/C(=O)c1c(O)cccc1OC", "discrete.label": "range 3"}
{"test.smiles": "COc1ccc(Cl)cc1/C=C/C(=O)c1ccccc1O", "discrete.label": "range 3"}
{"test.smiles": "COc1ccc(Cl)cc1-c1oc2ccccc2c(=O)c1O", "discrete.label": "range 2"}
{"test.smiles": "COc1ccc(I)cc1-c1oc2ccccc2c(=O)c1O", "discrete.label": "range 1"}

* * *

Experiment: Cytotoxicity against human TZM-bl cells assessed as decrease in cell viability at IC50 by CytoTox Glo assay relative to control
Assay type: cell-based

{"test.smiles": "COc1ccccc1-c1oc2ccccc2c(=O)c1O", "Activity": "Non-toxic"}
{"test.smiles": "COc1cc(Br)cc(-c2oc3ccccc3c(=O)c2O)c1OC", "Activity": "Non-toxic"}
{"test.smiles": "COc1ccc(Br)cc1-c1cc(=O)c2c(OCc3ccccc3)cccc2o1", "Activity": "Non-toxic"}
{"test.smiles": "COc1ccc(Br)cc1-c1oc2ccccc2c(=O)c1O", "Activity": "Non-toxic"}
{"test.smiles": "CCOc1ccc(Br)cc1-c1oc2ccccc2c(=O)c1O", "Activity": "Non-toxic"}
{"test.smiles": "CCOc1ccc(Cl)cc1-c1oc2ccccc2c(=O)c1O", "Activity": "20%"}
{"test.smiles": "COc1ccc(Br)cc1/C=C/C(=O)c1c(O)cccc1OCc1ccccc1", "Activity": "Non-toxic"}
{"test.smiles": "COc1ccc(Br)cc1/C=C/C(=O)c1ccc2ccccc2c1O", "Activity": "90%"}
{"test.smiles": "COc1ccccc1-c1cc(=O)c2c(O)cccc2o1", "Activity": "42%"}
